Test: Primary fluorescence-based thiol-reactive (MSTI) qHTS assay for identification of artifact compounds. (AID 1845221);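 further: thiol-reactive compounds lower the probe fluorescence signal; nearly all actives have a fitted effect of over 65% in size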
Settings: MSTI thiol-reactivity probe, 1 h; series mostly up to 53.8 µM
Inconclusive results are not listed. The source made the active and inactive calls. The call rests on the fitted dose curve; in most records, active means well fitted inhibition curve with a large enough effect; inconclusive means small, poorly fitted or top-dose-only effect; inactive means no such curve, though single readings can be large or run the other way.
Please provide measured activity change, negative = thiol reactive for the entries that follow.

# batch: return activity change, negative = thiol reactive for each of the 2 compounds below
1. C/C=C(\C)C(=O)OC1CC2C(CC=C3CC(OC4CC(OC)C(OC5CC(OC)C(OC6CC(OC)C(OC7CC(OC)C(O)C(C)O7)C(C)O6)C(C)O5)C(C)O4)CCC32C)C2(O)CCC(C(C)=O)C12C (centres undefined)
2. CC[C@H](C)[C@H](NC(=O)[C@H]1CCCCN1C)C(=O)N(COC(=O)CC(C)C)[C@H](C[C@@H](OC(C)=O)c1nc(C(=O)N[C@@H](Cc2ccc(O)cc2)C[C@H](C)C(=O)O)cs1)C(C)C

Response line:
0.247% [at 11.5 µM] (inactive)
28.3% [at 1.02 µM] (inactive)

# batch: return activity change, negative = thiol reactive for each of the 2 compounds below
1. Nc1ncnc2c1ncn2[C@@H]1O[C@@H]2COP(O)(=S)O[C@H]2[C@H]1O (some centres undefined)
2. C[C@H]1CC[C@@H]2[C@@H](C)[C@H]3[C@H](C[C@H]4[C@@H]5CC=C6CC(O[C@@H]7O[C@H](CO)[C@@H](O)[C@H](O[C@@H]8O[C@H](CO)[C@@H](O)[C@H](O)[C@H]8O)[C@@H]7O[C@@H]7O[C@@H](C)[C@H](O)[C@@H](O)[C@H]7O)CC[C@]6(C)[C@H]5CC[C@]34C)N2C1 (some centres undefined)

Response line:
1: -11.9% [at 11.5 µM] (inactive); 2: 134% [at 11.5 µM] (inactive)

---

Test system: Zika virus NS2B-NS3 protease (linked construct)
Test: Primary screen NINDS Rhodamine qHTS for Zika virus inhibitors (AID 1347160); further: nearly all actives have a fitted effect of over 55% in size
Conditions: purified NS2B-NS3 protease, Rhodamine110 substrate fluorescence; series mostly up to 57.1 µM
Results filed as inconclusive are left out. The source made the active and inactive calls. Calls follow the shape of the dose curve; as a rule, active = well fitted inhibition curve with a large enough effect; inconclusive = small, poorly fitted or top-dose-only effect; inactive = no such curve, though single readings can be large or run the other way. *1 amine or outer side, *2 acyl side, *3 side chain or, on linkers, in order; H or OH if unused. Where a SMILES comes first, the peptide text is derived from it. [ ]: non-standard residue; d: D form. X5 = CC(CC(O[*:1])C(=O)[*:2])C(=O)O; NMeV = CN[CH](C(=O)O)C(C)C; NMeA = CN[CH](C)C(=O)O; βAla = NCCC(=O)O
A correct response names exactly one class from TRUE for active, FALSE for inactive

Prompt line: What did this assay record as the result for c1ccc2c3c([nH]c2c1)CNCC3 ?
Response line: FALSE

Prompt line: What did this assay record as the result for CCOC(=O)c1ccc(-c2ccc(OC(=O)N(C)Cc3cccc(-c4ccncc4)c3)cc2)cc1 ?
Response line: FALSE

Prompt line: What did this assay record as the result for CN1C(=O)N(c2ccc(C#N)c(C(F)(F)F)c2)C(=O)[C@@]1(CO)c1ccccc1 ?
Response line: FALSE

Prompt line: What did this assay record as the result for COC[C@]12CN(C)C3C4[C@H](OC)[C@H]1C3(C(OC)C[C@H]2O)[C@H]1C[C@@]2(O)[C@H](OC(=O)c3ccccc3)[C@@H]1[C@]4(O)[C@@H](O)[C@@H]2OC (some centres not stated) ?
Response line: FALSE

Prompt line: What did this assay record as the result for CCC(C)C1NC(=O)C2CCCN2C(=O)C(CC(C)C(=O)O)OC(=O)CCNC(=O)C(C)N(C)C(=O)C(C(C)C)N(C)C1=O (configuration not stated) (cyclo([X5]PI[NMeV][NMeA][βAla]); configuration not given here) ?
Response line: FALSE

Prompt line: What did this assay record as the result for CO[C@@H](/C=C/CC/C=C/C(=O)O)[C@@H](O)[C@H](C)/C=C(\C)[C@@H](O)[C@H](C)C(=O)CCCC1CC(=O)NC(=O)C1 ?
Response line: FALSE

Prompt line: What did this assay record as the result for CC=C1CN(C=O)[C@H]2C[C@@H]1[C@@H](C(=O)OC)[C@@]13CCOC21Nc1ccccc13 (some centres not stated) ?
Response line: TRUE
